# Test system: greenhouse red spider mite (Tetranychus urticae)
# TEST: Tetranychus urticae spray test, OP-resistant (TETRUR), bean leaf disks
# Format: in vivo
# CONDITION_SET: Tetranychus urticae, foliar, 144 h, application rate 500 g/ha, after 6 days; read-out: efficacy (spider mites killed)
ASSAY_METRIC: pest or weed control at 500 g/ha (%)

> print(dat)
                                    molecule  value.unit  value.observed
 1  Cc1cc(F)c(/N=C(/c2ccccc2Cl)N(C)C)cc1SCC(F)(F)F           %             100
 2  Cc1cc(F)c(/N=C(\N)c2cccnc2)cc1[S+]([O-])CC(F)(F)F (stereo not shown)           %             100
 3  CN(C)/C(=N/c1cc([S+]([O-])CC(F)(F)F)c(Br)cc1F)C(F)(F)F (stereo not shown)           %             100
 4  N/C(=N\c1cc(SCC(F)(F)F)c(Cl)cc1Cl)c1ccc(Cl)nc1           %             100
 5  Cc1cc(F)c(/N=C(/N)c2ccc(Cl)cc2)cc1[S+]([O-])CC(F)(F)F (stereo not shown)           %             100
 6  Cc1cc(F)c(/N=C(\c2ccc(C(F)(F)F)nc2)N(C)C)cc1SCC(F)(F)F           %              90
 7  Cc1cc(F)c(/N=C(/NC2COC2)C(F)(F)F)cc1[S+]([O-])CC(F)(F)F (stereo not shown)           %              90
 8  CN/C(=N\c1cc([S+]([O-])CC(F)(F)F)c(Cl)cc1Cl)c1ccc(C(F)(F)F)nc1 (stereo not shown)           %              90
 9   Cc1cc(F)c(N=C(N)c2ccccc2F)cc1SCC(F)(F)F           %             100
10  COc1cc(C)c(SCC(F)(F)F)cc1/N=C(/N)C(F)(F)F           %             100
11  Cc1cc(Cl)c(/N=C(\N)C2(Cl)CC2)cc1SCC(F)(F)F           %             100
12  COc1ccc(N/C(=N/c2cc(SCC(F)(F)F)c(C)cc2F)C(F)(F)F)cc1           %             100
13  Cc1cc(C)c([S+]([O-])CC(F)(F)F)cc1/N=C(\NCC(F)(F)F)C1CCC1 (stereo not shown)           %              90
14  CN(C)/C(=N/c1cc([S+]([O-])CC(F)(F)F)c(Cl)cc1Cl)C(F)(F)F (stereo not shown)           %             100
15  CCN(C)/C(=N\c1cc(SCC(F)(F)F)c(C)cc1C)c1ccc(Cl)cc1           %              90
16  N#CC1(/C(N)=N/c2cc(SCC(F)(F)F)c(Cl)cc2Cl)CC1           %              90
